Molecular target: LATS2 (Homo sapiens, UniProt Q9NRM7)
Sequence (Q9NRM7 whole entry): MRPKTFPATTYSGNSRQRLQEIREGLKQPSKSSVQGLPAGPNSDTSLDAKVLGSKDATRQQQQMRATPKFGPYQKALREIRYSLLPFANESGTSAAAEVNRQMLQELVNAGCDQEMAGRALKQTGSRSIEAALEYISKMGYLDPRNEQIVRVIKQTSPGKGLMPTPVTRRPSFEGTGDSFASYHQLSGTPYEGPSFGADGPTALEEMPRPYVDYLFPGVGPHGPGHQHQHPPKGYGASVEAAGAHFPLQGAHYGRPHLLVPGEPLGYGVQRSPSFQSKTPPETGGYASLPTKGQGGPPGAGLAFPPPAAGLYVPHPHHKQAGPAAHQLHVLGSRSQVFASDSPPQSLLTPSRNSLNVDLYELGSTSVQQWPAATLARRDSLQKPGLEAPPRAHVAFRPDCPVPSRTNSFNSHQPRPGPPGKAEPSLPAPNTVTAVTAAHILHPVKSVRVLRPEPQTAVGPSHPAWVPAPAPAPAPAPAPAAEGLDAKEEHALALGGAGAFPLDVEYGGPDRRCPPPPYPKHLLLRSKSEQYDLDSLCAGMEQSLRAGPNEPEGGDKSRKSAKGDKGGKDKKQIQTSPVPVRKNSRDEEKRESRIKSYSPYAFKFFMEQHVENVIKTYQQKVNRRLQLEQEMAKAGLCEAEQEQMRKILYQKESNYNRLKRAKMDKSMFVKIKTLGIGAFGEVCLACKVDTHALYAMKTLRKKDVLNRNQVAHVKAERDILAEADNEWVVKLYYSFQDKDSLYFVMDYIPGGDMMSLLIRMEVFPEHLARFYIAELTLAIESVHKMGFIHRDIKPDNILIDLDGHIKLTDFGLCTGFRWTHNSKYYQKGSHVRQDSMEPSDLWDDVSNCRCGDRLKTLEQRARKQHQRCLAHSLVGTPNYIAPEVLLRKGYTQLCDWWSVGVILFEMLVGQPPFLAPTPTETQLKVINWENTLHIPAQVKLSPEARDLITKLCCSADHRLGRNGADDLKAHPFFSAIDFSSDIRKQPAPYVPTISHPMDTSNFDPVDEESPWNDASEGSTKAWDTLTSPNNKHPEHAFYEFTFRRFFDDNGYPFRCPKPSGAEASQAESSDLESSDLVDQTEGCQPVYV
Experiment: RBC HotSpot kinase assay (33P-ATP, P81 filter-binding), LATS2
Assay type: biochemical
Conditions: Table 28, biochemical kinase assay; read-out: LATS2 IC50
pIC50: −log10 of the molar value.
readoutKind: pIC50

// solved cases for pIC50 follow
{"columns": ["compound", "pIC50"],
 "data": [
  ["Fc1c[nH]c2nccc(-c3ccc(C4(C(F)(F)F)CCNCC4)cc3)c12", 7.85],
  ["C[C@@H]1CNC[C@H](C)[C@@]1(O)c1ccc(-c2ccnc3[nH]cc(F)c23)cc1OC(F)(F)F", 8.26],
  ["c1cc(-c2ccc3c(c2)CNC3)c2cc[nH]c2n1", 7.89],
  ["Cc1cc(-c2ccnc3[nH]cc(F)c23)cc(F)c1C1(O)CC2(CN(C3COC3)C2)C1", 8.05],
  ["CC1(c2ccc(-c3ccnc4[nH]cc(F)c34)cc2Cl)CCNCC1", 7.70],
  ["C[C@@H]1CN(C2COC2)C[C@H](C)[C@@]1(O)c1c(F)cc(-c2ccnc3[nH]cc(F)c23)cc1F", 8.01],
  ["Cc1cc2c(-c3ccc(CN)cc3)ccnc2[nH]1", 6.41],
  ["C[C@@H]1CN(C(CF)CF)C[C@H](C)C1(O)c1ccc(-c2ccnc3[nH]cc(F)c23)cc1Cl (stereo partly shown)", 8.44],
  ["CC(C)c1cc(-c2ccnc3[nH]cc(Cl)c23)ccc1CN", 7.94],
  ["NCc1ccc(-c2ccnc3[nH]ccc23)cc1-c1ccccc1", 7.70]
]}

(P) NCc1ccc(-c2ccnc3[nH]cc(-c4cccc(F)c4)c23)cc1
(Q) Cc1cc(-c2ccnc3[nH]cc(F)c23)cc(F)c1[C@@]1(O)[C@H](C)CN(C(=O)[C@H](N)CO)C[C@@H]1C
(R) OC1(c2ccc(-c3ccnc4[nH]cc(-c5cccnc5)c34)cc2)CCNCC1
(S) CC(C)c1c[nH]c2nccc(-c3ccc(CN)c(-c4ccccc4)c3)c12
Qu. Order the items by recorded pIC50; the first position goes to the largest value. Write the labels out in the order the request specifies.
Ans. Q, P, R, S
(Q: 8.46, P: 7.96, R: 7.49, S: 6.94)

(A) CC(C)(N)c1ccc(-c2ccnc3[nH]cc(Br)c23)cc1-c1ccccc1
(B) NCc1ccc(-c2ccnc3[nH]cc(-c4ccccc4)c23)cc1
(C) NC(=O)c1ccc(-c2cc(-c3ccnc4[nH]ccc34)ccc2C2CCNCC2)cc1
(D) CC(C)(C)Nc1cc(-c2ccnc3[nH]ccc23)ccc1CN
(E) Cc1cc(-c2ccnc3[nH]cc(F)c23)ccc1[C@@]1(O)[C@H](C)CN(C2CCC2)C[C@@H]1C
Qu. Order the items by recorded pIC50; the first position goes to the largest value. Write the labels out in the order the request specifies.
Ans. E, B, A, C, D
(E: 8.64, B: 8.30, A: 8.02, C: 7.59, D: 6.87)

(P) Cc1cc(-c2ccnc3[nH]cc(F)c23)ccc1[C@@]1(O)[C@H](C)CN(C(=O)CN)C[C@@H]1C
(Q) O=C([C@@H]1CCCN1)N1CCC(O)(c2ccc(-c3ccnc4[nH]cc(F)c34)cc2)CC1
Qu. Which shows the larger pIC50 value: P or Q ? Answer by quoting the chosen item's label.
Ans. P
(P: 8.17, Q: 7.92)
